Biological target: T1, human GLP-2 receptor (human, UniProt O95838 1-553)
T1 sequence (looked up): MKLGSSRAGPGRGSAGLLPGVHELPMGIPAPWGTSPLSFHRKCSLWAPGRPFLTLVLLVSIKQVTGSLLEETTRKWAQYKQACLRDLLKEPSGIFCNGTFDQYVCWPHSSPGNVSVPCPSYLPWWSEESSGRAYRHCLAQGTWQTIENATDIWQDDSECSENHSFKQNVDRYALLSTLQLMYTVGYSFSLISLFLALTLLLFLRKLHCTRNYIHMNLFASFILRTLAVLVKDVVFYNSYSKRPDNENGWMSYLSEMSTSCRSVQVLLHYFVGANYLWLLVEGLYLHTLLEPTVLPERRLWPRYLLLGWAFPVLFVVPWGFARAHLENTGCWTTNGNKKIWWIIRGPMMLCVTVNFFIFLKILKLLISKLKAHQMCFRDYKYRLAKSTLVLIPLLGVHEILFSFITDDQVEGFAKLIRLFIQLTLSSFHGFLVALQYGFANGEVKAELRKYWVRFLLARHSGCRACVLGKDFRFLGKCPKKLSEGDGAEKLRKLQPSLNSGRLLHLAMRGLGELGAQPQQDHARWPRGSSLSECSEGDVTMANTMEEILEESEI
Experiment: cell-based or functional assay
Each item that follows carries a reported logEC50 (cAMP).
endpoint: logEC50 (cAMP)

INSERT INTO measurements (binder, test_value) VALUES
  ('HADGTFISEYSTILDNLAARDFINWLIQTKITD [GIP-GLP-2 co-agonist 15]', -8.18),
  ('HVDGTFISDYSTILDNLAARDFINWLIQTKITD [GIP-GLP-2 co-agonist 12]', -7.6),
  ('HAEGTFISDYSTILDNLAARDFINWLIQTKGKK [GIP-GLP-2 co-agonist 10]', -7.66),
  ('HADGTFISDYSTILDNLAARDFINWLIQTKITK [GIP-GLP-2 co-agonist 18]', -8.28),
  ('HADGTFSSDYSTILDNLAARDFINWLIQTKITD [GIP-GLP-2 co-agonist 13]', -7.95),
  ('HGDGTFISDYSTILDNLAARDFINWLIQTKITD [GIP-GLP-2 co-agonist 11]', -7.62);
